Biological target: Nuclear respiratory factor 1 (Homo sapiens) (UniProt Q16656)
Sequence (Q16656 whole entry, looked up): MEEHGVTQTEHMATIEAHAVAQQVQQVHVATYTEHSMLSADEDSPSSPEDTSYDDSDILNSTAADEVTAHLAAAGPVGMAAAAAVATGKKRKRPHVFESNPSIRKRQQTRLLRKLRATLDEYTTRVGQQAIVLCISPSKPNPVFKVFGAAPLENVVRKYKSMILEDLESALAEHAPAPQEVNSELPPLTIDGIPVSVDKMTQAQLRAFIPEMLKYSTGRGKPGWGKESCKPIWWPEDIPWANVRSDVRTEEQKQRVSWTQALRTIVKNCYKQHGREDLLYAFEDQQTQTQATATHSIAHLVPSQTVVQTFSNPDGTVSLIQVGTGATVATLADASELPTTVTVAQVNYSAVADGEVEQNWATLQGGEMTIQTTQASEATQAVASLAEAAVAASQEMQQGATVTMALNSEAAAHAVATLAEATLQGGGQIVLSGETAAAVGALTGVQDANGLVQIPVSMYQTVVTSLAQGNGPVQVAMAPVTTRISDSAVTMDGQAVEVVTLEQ
Assay: ATG_NRF1_CIS: Attagene CIS-FACTORIAL HepG2 Assay for human Nuclear Respiratory Factor 1 (NRF1) Orphan Gene (AID 2282987)
Conditions: HepG2 NRF1 cis-element reporter, Attagene multiplex; actives raise or lower the signal
Method: ATG_CIS is a cell-based, multiplexed-readout assay that uses HepG2, a human liver cell line, with measurements taken at 24 hours after chemical dosing in a 24-well plate.ATG_NRF1_CIS is one of 52 assay component(s) measured or calculated from the ATG_CIS assay. […] This assay endpoint, ATG_NRF1_CIS, was analyzed with bidirectional fitting relative to DMSO as the negative control and baseline of activity. […]
Activity calls are given as the source filed them. How the source made its calls: active means hit-call score of the fitted dose curve at least 0.9, where 1 is the maximum; inactive means score below 0.9.
Assign a class; possible classes are active, inactive

**Query** Each compound tested received a call. Report the one for CCOc1cccc(-n2cc(C(=O)N3CCN(c4cc(C(=O)O)c5ccccc5c4)CC3)nc2-c2ccc(C)cc2)c1 .
**Result** active

**Query** Each compound tested received a call. Report the one for O=C1CCC(N2C(=O)c3ccccc3C2=O)C(=O)N1 (configuration not stated) .
**Result** inactive

**Query** Each compound tested received a call. Report the one for CC(C)=CCC/C(C)=C/CO .
**Result** inactive

**Query** Each compound tested received a call. Report the one for CCCCCCCCO .
**Result** inactive

**Query** Each compound tested received a call. Report the one for CC/C(=C\C(=N/O)C(N)=O)C(C)[N+](=O)[O-] (configuration not stated) .
**Result** inactive

**Query** Each compound tested received a call. Report the one for CC1=CC(=O)CC(C)(C)C1 .
**Result** inactive

**Query** Each compound tested received a call. Report the one for CCCCCCc1ccc(O)cc1O .
**Result** inactive
